These data points were gathered from PubChem BioAssay AID1445.

This listing pairs compounds with measured inhibition.
biological target: Aminopeptidase N (Plasmodium falciparum (isolate 3D7)); assay: malaria alanyl aminopeptidase activity blockers – biochemical, fluorogenic H-Leu-NHMec substrate, 1536-well (AID 1445); details: recombinant M1AAP, H-Leu-NHMec fluorogenic kinetic assay; at 30 µM, hits give high values unless noted;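 note: plate controls were DMSO full reaction for no effect and no enzyme background for full effect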
Out of some 220,000 compounds screened, about 910 (0.41%) were called active. This excerpt belongs to a sample that is enriched for actives. Results with a measured potency or affinity are listed apart.

{"INPUT SMILES": "Cc1oc(C(=O)O)cc1COc1ccc2c3c(c(=O)oc2c1C)CCC3", "inhibition": "7.51% (inactive)"}
{"INPUT SMILES": "COC(=O)c1ccc(S(=O)(=O)N2CCCN(Cc3ccccc3)CC2)n1C", "inhibition": "-2.02% (inactive)"}
{"INPUT SMILES": "COc1ccc(/C=C/c2cc(C(F)(F)F)[nH]c(=O)n2)cc1OC", "inhibition": "10.6% (inactive)"}

Now consider the entry below.
INPUT: Dear colleague, please send me the reported inhibition for Cc1cc2oc(=O)c3c(c2cc1OCc1nn[nH]n1)CCCC3 when you can.
OUTPUT: 10.1% (inactive)

====

This listing pairs compounds with measured inhibition.
target: Aminopeptidase N (Plasmodium falciparum (isolate 3D7)); assay: malaria alanyl aminopeptidase activity blockers – biochemical, fluorogenic H-Leu-NHMec substrate, 1536-well (AID 1445); conditions: recombinant M1AAP, H-Leu-NHMec fluorogenic kinetic assay; at 30 µM, hits give high values unless noted
Screen size: about 220,000 compounds; about 910 (0.41%) were called active. For the sample, actives were picked, then their nearest neighbours and some compounds at random. Measured potencies and affinities stand elsewhere.
Number in %, nothing else.

Here's what some known entries look like.
{"INPUT SMILES": "CC(/C=C1\\SC(=S)N(NC(=O)c2ccncc2)C1=O)=C\\c1ccccc1", "inhibition, %": 13.9}
{"INPUT SMILES": "Cc1ccc(S(=O)(=O)NC2=NCN(CCN3CCOCC3)CN2)cc1", "inhibition, %": 2.01}
{"INPUT SMILES": "O=C(CSc1nccn1-c1ccc(Cl)cc1)Nc1ccc2c(c1)OCO2", "inhibition, %": 1.54}
{"INPUT SMILES": "CC(/C=C1\\SC(=S)N(NC(=O)c2ccc(O)cc2)C1=O)=C\\c1ccccc1", "inhibition, %": 4.4}
{"INPUT SMILES": "Cc1ccc(N=N/C(=C\\O)C(=O)c2ccncc2)cc1", "inhibition, %": 27.6}
{"INPUT SMILES": "Cc1nc(NC2=NCN(CCCN3CCOCC3)CN2)nc2c(C)cccc12", "inhibition, %": 29.4}
{"INPUT SMILES": "C/C(=N/N1CCN(c2ccccn2)CC1)c1ccc([N+](=O)[O-])cc1", "inhibition, %": -1.3}
{"INPUT SMILES": "CCOC(=O)c1cc2c(=O)n3ccccc3nc2n(CCOC)c1=NC(=O)C(C)(C)C", "inhibition, %": 16.9}

INPUT: Dear colleague, please send me the reported inhibition for COc1ccc(Cn2nnc3c(=O)[nH]c(C(=O)NCCc4ccc(F)cc4)nc32)cc1OC when you can.
OUTPUT: 24.5

INPUT: Dear colleague, please send me the reported inhibition for O=C(O)c1cccc(CSc2n[nH]c(-c3ccc(Cl)cc3Cl)n2)c1 when you can.
OUTPUT: 7.08

====

biological target: Aminopeptidase N (Plasmodium falciparum (isolate 3D7)) (UniProt O96935); test: malaria alanyl aminopeptidase activity blockers – biochemical, fluorogenic H-Leu-NHMec substrate, 1536-well (AID 1445); settings: recombinant M1AAP, H-Leu-NHMec fluorogenic kinetic assay; at 30 µM, hits give high values unless noted;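 note: plate controls were DMSO full reaction for no effect and no enzyme background for full effect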
Sequence (O96935 whole entry, looked up): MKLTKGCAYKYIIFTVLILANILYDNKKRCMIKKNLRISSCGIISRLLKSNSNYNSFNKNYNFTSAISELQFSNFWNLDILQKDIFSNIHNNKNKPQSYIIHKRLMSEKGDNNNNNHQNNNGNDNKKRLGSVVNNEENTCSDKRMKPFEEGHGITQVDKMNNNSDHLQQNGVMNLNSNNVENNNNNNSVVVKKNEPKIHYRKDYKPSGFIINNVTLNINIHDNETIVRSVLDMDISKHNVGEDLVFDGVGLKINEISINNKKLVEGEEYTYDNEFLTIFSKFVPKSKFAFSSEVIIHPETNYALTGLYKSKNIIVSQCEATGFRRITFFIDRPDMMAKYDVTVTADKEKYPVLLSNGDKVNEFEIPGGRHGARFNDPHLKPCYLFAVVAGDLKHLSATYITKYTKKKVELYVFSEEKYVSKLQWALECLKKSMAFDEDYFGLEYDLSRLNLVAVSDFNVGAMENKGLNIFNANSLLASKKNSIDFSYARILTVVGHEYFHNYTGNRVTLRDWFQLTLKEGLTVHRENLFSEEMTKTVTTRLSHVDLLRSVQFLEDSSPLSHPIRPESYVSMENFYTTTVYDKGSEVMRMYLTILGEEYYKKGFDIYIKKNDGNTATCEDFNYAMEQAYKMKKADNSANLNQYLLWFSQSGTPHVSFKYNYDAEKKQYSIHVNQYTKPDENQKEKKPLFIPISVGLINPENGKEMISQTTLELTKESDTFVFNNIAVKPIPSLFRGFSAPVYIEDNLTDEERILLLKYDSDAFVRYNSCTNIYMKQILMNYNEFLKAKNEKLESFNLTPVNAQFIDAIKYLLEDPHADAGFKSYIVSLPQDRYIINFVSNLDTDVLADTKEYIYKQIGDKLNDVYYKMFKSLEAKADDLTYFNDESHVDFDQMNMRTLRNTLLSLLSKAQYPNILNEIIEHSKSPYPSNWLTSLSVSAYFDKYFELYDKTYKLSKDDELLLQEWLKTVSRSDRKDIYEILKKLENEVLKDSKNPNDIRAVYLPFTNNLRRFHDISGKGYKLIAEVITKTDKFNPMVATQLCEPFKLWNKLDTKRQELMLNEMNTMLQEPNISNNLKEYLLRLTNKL
Screen size: about 220,000 compounds; about 910 (0.41%) were called active. The sample as a whole holds a higher share of actives than the screen did. Results with a measured potency or affinity are listed apart.
This listing pairs compounds with measured inhibition.
Number in %, nothing else.

Here's what some known entries look like.
{"COMPOUND": "Cc1ccc(-c2[nH]ncc2/C=C(\\C#N)C(=O)NC2CCCCC2)cc1", "UNITS TEXT": "%", "inhibition": 24.9}
{"COMPOUND": "CS(=O)(=O)NCc1ccc(C(=O)O)cc1", "UNITS TEXT": "%", "inhibition": 9.65}
{"COMPOUND": "O=C(NCc1ccccc1)c1ccc2c(c1)C(=O)N(Cc1ccncc1)C2=O", "UNITS TEXT": "%", "inhibition": -0.3}
{"COMPOUND": "O=C1C2=C(c3ccccc31)[N+](=O)[C@@H]1CCCC[C@@H]1N2[O-]", "UNITS TEXT": "%", "inhibition": 8.78}
{"COMPOUND": "O=C(c1ccc(-c2ccccc2)cc1)C1CCCN(C(=O)Cn2cncn2)C1 (configuration not stated)", "UNITS TEXT": "%", "inhibition": 8.56}
{"COMPOUND": "Cc1cccc(N(CC(=O)NC2CCCC2)C(=O)CS(=O)CC(=O)Nc2ccc3c(c2)OCO3)c1 (configuration not stated)", "UNITS TEXT": "%", "inhibition": 1.66}

Now consider the entry below.
INPUT: Dear colleague, please send me the reported inhibition for CN(C(=O)c1ccccc1NC(=O)C(F)(F)F)c1ccccc1 when you can.
OUTPUT: 4.16

====

target: Aminopeptidase N (Plasmodium falciparum (isolate 3D7)); assay: malaria alanyl aminopeptidase activity blockers – biochemical, fluorogenic H-Leu-NHMec substrate, 1536-well (AID 1445); conditions: recombinant M1AAP, H-Leu-NHMec fluorogenic kinetic assay; at 30 µM, hits give high values unless noted;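 note: plate controls were DMSO full reaction for no effect and no enzyme background for full effect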
In all, about 220,000 compounds went through this assay and about 910 (0.41%) were called active. The sample holds actives, similar compounds and a random draw of the others, so the mix is not that of the screen. Measured potencies and affinities stand elsewhere.
This listing pairs compounds with measured inhibition.
Number in %, nothing else.

{"COMPOUND": "CCCOc1cccc(NC(=O)OC2CCN(C)CC2)c1", "inhibition (%)": -1.59}
{"COMPOUND": "C=CCn1c(O)c(N=NC(=O)OCC)c2ccccc21", "inhibition (%)": 12.7}
{"COMPOUND": "O=c1[nH]c(CN2CCN(c3ccccc3Cl)CC2)nc2ccsc12", "inhibition (%)": 6.37}
{"COMPOUND": "NC(=O)c1nnsc1Sc1c(C(N)=O)nnn1-c1cccc(N)c1", "inhibition (%)": 4.16}
{"COMPOUND": "CCCCC(CC)CNC(=O)c1cccs1 (centres undefined)", "inhibition (%)": -3.27}
{"COMPOUND": "O=C(CSc1nc2c(c(=O)[nH]1)CCCC2)Nc1ccc(Cl)cc1F", "inhibition (%)": -2.08}
{"COMPOUND": "Cn1c(C(=O)NC2CCCCC2)cc2c(=O)n(C)c3ccccc3c21", "inhibition (%)": -0.49}
{"COMPOUND": "Cc1cc(C)c(S(=O)(=O)NCC(=O)O)cc1C", "inhibition (%)": -7.15}

Now consider the entry below.
INPUT: Dear colleague, please send me the reported inhibition for Clc1ccc(CN2C3=NCCN3c3ccccc32)cc1 when you can.
OUTPUT: 7.94

====

molecular target: Aminopeptidase N (Plasmodium falciparum (isolate 3D7)); assay: malaria alanyl aminopeptidase activity blockers – biochemical, fluorogenic H-Leu-NHMec substrate, 1536-well (AID 1445); settings: recombinant M1AAP, H-Leu-NHMec fluorogenic kinetic assay; at 30 µM, hits give high values unless noted;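 note: plate controls were DMSO full reaction for no effect and no enzyme background for full effect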
The campaign covered roughly 220,000 compounds. About 910 (0.41%) were called active. This excerpt belongs to a sample that is enriched for actives. Measured potencies and affinities stand elsewhere.
This listing pairs compounds with measured inhibition.
Number in %, nothing else.

Here's what some known entries look like.
{"COMPOUND": "COC(=O)c1ccc(COc2ncnc3c(Cl)cc(Cl)cc23)o1", "UNITS TEXT": "%", "inhibition": 1.47}
{"COMPOUND": "COc1ccc2ccccc2c1C1CC(=O)N2CN(C)CSC2=C1C#N (stereo not drawn)", "UNITS TEXT": "%", "inhibition": 16}
{"COMPOUND": "CSc1nnc(-c2cc3c(s2)-c2ccccc2CC3)o1", "UNITS TEXT": "%", "inhibition": 18.2}
{"COMPOUND": "O=C(CNC(=S)N(Cc1ccccc1)Cc1cccnc1)NCCc1ccccc1", "UNITS TEXT": "%", "inhibition": -4.94}
{"COMPOUND": "COc1cccc(C(=O)Nn2c(C)nnc2-n2nc(C)cc2C)c1", "UNITS TEXT": "%", "inhibition": 8.95}

INPUT: Dear colleague, please send me the reported inhibition for Cc1ccc(-n2c(=O)cc(N3CCc4ccccc4C3)[nH]c2=O)cc1 when you can.
OUTPUT: 3.06

INPUT: Dear colleague, please send me the reported inhibition for Cc1ccc(N2C(=O)CC(Sc3nc(-c4ccccc4)c4cc(Cl)ccc4n3)C2=O)c(C)c1 (stereo not drawn) when you can.
OUTPUT: 8.91

INPUT: Dear colleague, please send me the reported inhibition for CC(Oc1cc(F)ccc1[N+](=O)[O-])C(=O)N(C)CC(=O)Nc1ccccc1C(F)(F)F (stereo not drawn) when you can.
OUTPUT: 7.16
